# Assay procedure: soluble on expression in E. coli; label from the status in PepcDB or PDB records

>  <Input sequence>
MSLQFVSKARKGLVPQRCHRFQSCAYRSNQWRYRGRCDSIQFAVDKRVFIAGFGLYGSSCGSAEYSAKIEMKRQGVVLGQNLSKYFSDGSSNTFPVWFEYPVQIEPDTFYTASVILDGNELSYFGQEGMTEVQCGKVTVQFQCSSDSTNGTGVQGGQIPELIFYAEGHHHHHH

>  <soluble on expression in E. coli>
not soluble

$$$$
>  <Input sequence>
MRNFDLSPLYRSAIGFDRLFNHLENNQSQSNGGYPPYNVELVDENHYRIAIAVAGFAESELEITAQDNLLVVKGAHADEQKERTYLYQGIAERNFERKFQLAENIHVRGANLVNGLLYIDLERVIPEAKKPRRIEIN

>  <soluble on expression in E. coli>
not soluble

$$$$
>  <Input sequence>
MAHHHHHHMHDANRFGGRTAYLREIGPIDHKKKGRLFKRDLPTLQFNVDVWCAQQTLRKQWKGRDWDVVEMPFEMAPKELQRVVPEKYTDVPIMTDPARHDYMNIRRKVFDREDMQDALFASGGAGQSPYPAIQRVDKAAMTLDKYL

>  <soluble on expression in E. coli>
soluble

$$$$
>  <Input sequence>
GSNRSLIVTTILEEPYVLFKKSDKPLYGNDRFEGYCIDLLRELSTILGFTYEIRLVEDGKYGAQDDVNGQWNGMVRELIDHKADLAVAPLAITCVREKVIDFSKPFMTLGISILYRKGTPIDSADDLAKQTKIEYGAVEDGATMTFFKKSKISTYDKMWAFMSSRRQSVLVKSNEEGIQRVLTSDYAFLMESTTIEFVTQRNCNLTQIGGLIDSKGYGVGTPMGSPYRDKITIAICQLQEEGKLHMMKEKWWRGNGCPS

>  <soluble on expression in E. coli>
soluble

$$$$
